# Measurement description: Cytotoxicity against human CHP100 cells assessed as reduction in cell viability after 24 hrs by resazurin dye based Alamar blue assay
# Type: functional
# Particulars: CHP100, 24 h
Measure: pIC50
Expect pIC50 as a plain number equal to -log10 of the molar concentration.

See these solved cases before continuing.
CC(=O)OCC1=C(C)C[C@H]([C@@H](C)[C@H]2[C@@H](OC(C)=O)C[C@H]3[C@@H]4C[C@H]5O[C@]56[C@@H](OC(C)=O)C=CC(=O)[C@]6(C)[C@H]4CC[C@]23C)OC1=O    7.23
CC(=O)OCC1=C(C)C[C@H]([C@@H](C)[C@H]2[C@@H](OC(C)=O)C[C@H]3[C@@H]4C[C@H](I)[C@]5(O)[C@@H](OC(C)=O)C=CC(=O)[C@]5(C)[C@H]4CC[C@]23C)OC1=O    6.33
CC1=C(CO)C(=O)O[C@@H]([C@@H](C)[C@H]2CC[C@H]3[C@@H]4C[C@H]5O[C@]56[C@@H](O)C=CC(=O)[C@]6(C)[C@H]4CC[C@]23C)C1    6.37

Kindly review the next compound as well.
So what's the measured pIC50 for this one? CC1=C(C)C(=O)O[C@@H]([C@](C)(O)[C@H]2CC[C@H]3[C@@H]4C[C@H]5O[C@]56[C@@H](O)C=CC(=O)[C@]6(C)[C@H]4CC[C@]23C)C1 [WITHANOLIDE D]
6.49

---

# Measurement description: Cytotoxicity against human CHP100 cells assessed as reduction in cell viability after 24 hrs by resazurin dye based Alamar blue assay
# Assay type: functional
# Particulars: CHP100, 24 h
Measure: pIC50
Expect pIC50 as a plain number equal to -log10 of the molar concentration.

CC(=O)O[C@H]1C=CC(=O)[C@]2(C)[C@H]3CC[C@]4(C)[C@@H]([C@@](C)(O)[C@H]5CC(C)=C(C)C(=O)O5)CC[C@H]4[C@@H]3C[C@H]3O[C@]132    6.53
CC(=O)OCC1=C(C)C[C@H]([C@@H](C)[C@H]2CC[C@H]3[C@@H]4C[C@H]5O[C@]56[C@@H](OC(C)=O)C=CC(=O)[C@]6(C)[C@H]4C[C@@H](OC(C)=O)[C@]23C)OC1=O    6.92

Kindly review the next molecule as well.
So what's the measured pIC50 for this one? CC1=C(CO)C(=O)O[C@@H]([C@@H](C)[C@H]2CC[C@H]3[C@@H]4C[C@H]5O[C@]56[C@H](O)C=CC(=O)[C@]6(C)[C@H]4CC[C@]23C)C1
6.51

---

# Tested on: HEK-293T
# Measurement description: Induction of heat shock response in GFP-tagged human 293T cells after overnight incubation by luciferase reporter gene based luminometric method relative to control
# Type: functional
Residues, ends and D or L forms follow the SMILES beside them. *: point of attachment. Cbz = O=C(OCc1ccccc1)*
The label depends only on AUC: condition met if it is at least 60, condition not met if it is smaller.

A selection of reference data follows.
CC1=C(CO)C(=O)O[C@@H]([C@@H](C)[C@H]2CC[C@H]3[C@@H]4C[C@H]5O[C@]56[C@@H](O)C=CC(=O)[C@]6(C)[C@H]4CC[C@]23C)C1 [WITHAFERIN A]    condition met
CC(C)C[C@@H](C=O)NC(=O)[C@H](CC(C)C)NC(=O)[C@H](CC(C)C)NC(=O)OCc1ccccc1 [MG-132] (Cbz-Leu-Leu-Leu-aldehyde)    condition met

Hi team, for CC(=O)OCC1=C(C)C[C@H]([C@@H](C)[C@H]2CC[C@H]3[C@@H]4C[C@H]5O[C@]56[C@@H](OC(C)=O)C=CC(=O)[C@]6(C)[C@H]4C[C@@H](OC(C)=O)[C@]23C)OC1=O , is the recorded AUC at or above 60?
condition met

Hi team, for CC(=O)OCC1=C(C)C[C@H]([C@@H](C)[C@H]2[C@@H](OC(C)=O)C[C@H]3[C@@H]4C[C@H]5O[C@]56[C@@H](OC(C)=O)C=CC(=O)[C@]6(C)[C@H]4CC[C@]23C)OC1=O , is the recorded AUC at or above 60?
condition met

Hi team, for CC1=C(C)C(=O)O[C@@H]([C@](C)(O)[C@H]2CC[C@H]3[C@@H]4C[C@H]5O[C@]56[C@@H](O)C=CC(=O)[C@]6(C)[C@H]4CC[C@]23C)C1 [WITHANOLIDE D] , is the recorded AUC at or above 60?
condition not met

Hi team, for CC1=C(CO)C(=O)O[C@@H]([C@@H](C)[C@H]2CC[C@H]3[C@@H]4C[C@H]5O[C@]56[C@H](O)C=CC(=O)[C@]6(C)[C@H]4CC[C@]23C)C1 , is the recorded AUC at or above 60?
condition not met

Hi team, for CC(=O)OCC1=C(C)C[C@H]([C@@H](C)[C@H]2CC[C@H]3[C@@H]4C[C@H]5O[C@]56[C@@H](OC(C)=O)C=CC(=O)[C@]6(C)[C@H]4CC[C@]23C)OC1=O , is the recorded AUC at or above 60?
condition met

Hi team, for CC(=O)OCC1=C(C)C[C@H]([C@@H](C)[C@H]2[C@@H](OC(C)=O)C[C@H]3[C@@H]4C[C@H](I)[C@]5(O)[C@@H](OC(C)=O)C=CC(=O)[C@]5(C)[C@H]4CC[C@]23C)OC1=O , is the recorded AUC at or above 60?
condition met
